Experiment: 7-day repeated-dose PK in rats
Type: in vivo, Sprague Dawley rats
Conditions: male, Sprague Dawley, rat, plasma, po, 400 mg/kg/day, day 7, PO 400 mg/kg/day, M
Observation Type: AUC(0-t) (ng·h/mL)
# unit: ng·h/mL | format: bare number

Inquiry: Name the recorded AUC(0-t) for C[C@]12CC[C@@H]3c4ccc(B(O)O)cc4C[C@@H](CCCCCCCCC[S+]([O-])CCCC(F)(F)C(F)(F)F)[C@H]3[C@@H]1CC[C@@H]2O (stereo partly shown) .
Reply text: 32700

----------
Tested on: CYP3A4
Experiment: CYP induction (enzyme activity) in cryopreserved human hepatocytes, CYP3A4
Format: in vitro ADME
Settings: human, plated cryopreserved human hepatocytes, donor two, 15 µM
Observation Type: fold induction at 72 h, 15 µM
Reply: number alone, nothing else.

Inquiry: Name the recorded fold induction at 72 h, 15 µM for C[C@]12CC[C@@H]3c4ccc(B(O)O)cc4C[C@@H](CCCCCCCCC[S+]([O-])CCCC(F)(F)C(F)(F)F)[C@H]3[C@@H]1CC[C@@H]2O (stereo partly shown) .
Reply text: 2.92

----------
Experiment: 4-week repeat-dose toxicity/TK study in dogs
Format: in vivo, beagle dogs
Settings: male, beagle, dog, plasma, po, 25 mg/kg/day, day 1, PO 25 mg/kg/day, M
Observation Type: Cmax (ng/mL)
# unit: ng/mL | format: bare number

Inquiry: Name the recorded Cmax for C[C@]12CC[C@@H]3c4ccc(B(O)O)cc4C[C@@H](CCCCCCCCC[S+]([O-])CCCC(F)(F)C(F)(F)F)[C@H]3[C@@H]1CC[C@@H]2O (stereo partly shown) [ZB716, fulvestrant-3-boronic acid] .
Reply text: 691

----------
Test: 7-day repeated-dose PK in rats
Assay type: in vivo, Sprague Dawley rats
Details: male, Sprague Dawley, rat, plasma, po, 10 mg/kg/day, day 1, PO 10 mg/kg/day, M; read-out: Tmax (median)
Observation Type: Tmax (min)
# unit: min | format: bare number

Inquiry: Name the recorded Tmax for C[C@]12CC[C@@H]3c4ccc(B(O)O)cc4C[C@@H](CCCCCCCCC[S+]([O-])CCCC(F)(F)C(F)(F)F)[C@H]3[C@@H]1CC[C@@H]2O (stereo partly shown) .
Reply text: 30

----------
Experiment: Single-dose PK and bioavailability in dogs
Type: in vivo
Conditions: female, beagle, dog, plasma; single dose, PO 6 mg/kg/day, F
Observation Type: Tmax (min)
# unit: min | format: bare number

Inquiry: Name the recorded Tmax for C[C@]12CC[C@@H]3c4ccc(B(O)O)cc4C[C@@H](CCCCCCCCC[S+]([O-])CCCC(F)(F)C(F)(F)F)[C@H]3[C@@H]1CC[C@@H]2O (stereo partly shown) .
Reply text: 30

----------
Assay: 7-day repeated-dose PK in rats
Assay type: in vivo, Sprague Dawley rats
Settings: male, Sprague Dawley (Crl: CD (SD)), rat, plasma, po, 10 mg/kg/day, day 7, PO 10 mg/kg/day, M
Observation Type: Cmax

Inquiry: Name the recorded Cmax for C[C@]12CC[C@@H]3c4ccc(B(O)O)cc4C[C@@H](CCCCCCCCC[S+]([O-])CCCC(F)(F)C(F)(F)F)[C@H]3[C@@H]1CC[C@@H]2O (stereo partly shown) [ZB716, fulvestrant-3-boronic acid] .
Reply text: 322 ng/mL

----------
Test system: CYP2B6
Assay: CYP induction (enzyme activity) in cryopreserved human hepatocytes, CYP2B6
Conditions: human, plated cryopreserved human hepatocytes, Fold Induction, donor one, 30 µM
Observation Type: fold induction at 72 h, 30 µM
Reply: number alone, nothing else.

Inquiry: Name the recorded fold induction at 72 h, 30 µM for CCOC(=O)c1ncn2c1CN(C)C(=O)c1cc(F)ccc1-2 [Flumazenil, flumazenil, reference compound] .
Reply text: 1.17

src = paper PMC8400955
